- testedTarget: recombinant human MAO-B (Homo sapiens)
- Sequence (P27338 whole entry): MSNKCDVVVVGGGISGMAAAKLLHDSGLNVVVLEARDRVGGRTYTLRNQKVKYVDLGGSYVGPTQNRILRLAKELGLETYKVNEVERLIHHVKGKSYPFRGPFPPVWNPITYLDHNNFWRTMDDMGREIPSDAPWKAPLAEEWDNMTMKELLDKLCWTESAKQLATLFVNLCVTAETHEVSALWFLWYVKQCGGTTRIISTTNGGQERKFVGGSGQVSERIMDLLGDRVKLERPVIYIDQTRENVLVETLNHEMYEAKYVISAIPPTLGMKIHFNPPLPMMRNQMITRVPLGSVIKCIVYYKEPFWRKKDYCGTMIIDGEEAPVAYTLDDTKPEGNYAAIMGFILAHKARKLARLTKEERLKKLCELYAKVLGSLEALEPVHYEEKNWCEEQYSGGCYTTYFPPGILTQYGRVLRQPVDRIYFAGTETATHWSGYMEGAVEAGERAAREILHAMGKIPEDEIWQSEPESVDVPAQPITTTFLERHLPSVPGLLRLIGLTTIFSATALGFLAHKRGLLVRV
- testName: MAO-B inhibition assay (kynuramine oxidative deamination)
- conditionDetails: kynuramine 50 μM; mean ± S.D. of at least triplicate observations
Labelling field: enter 1.0 if recorded IC50 is less than 0.4 µM. Enter 0.0 if it equals or exceeds that cut-off.

compound	testedTarget	categoryLabel
C[C@@H]1O[C@@H](O[C@@H]2[C@@H](O)[C@H](O)[C@@H](CO)O[C@H]2c2c(O)cc(O)c3c(=O)cc(-c4ccc(O)cc4)oc23)[C@H](O)[C@H](O)[C@H]1O [Rhamnosylvitexin]	recombinant human MAO-B (Homo sapiens)	0.0
COc1cc(O)c2c(=O)cc(-c3ccc(O)c(OC)c3)oc2c1 [Vetulin]	recombinant human MAO-B (Homo sapiens)	0.0
COc1ccc(-c2cc(=O)c3c(O)cc(OC)cc3o2)cc1 [Acacetin 7-methyl ether, 5-hydroxy-4′, 7-dimethoxyflavone]	recombinant human MAO-B (Homo sapiens)	1.0
O=C(/C=C/c1ccc(O)cc1)OC[C@H]1O[C@@H](Oc2cc(O)c3c(=O)cc(-c4ccc(O)cc4)oc3c2)[C@H](O)[C@@H](O)[C@@H]1O	recombinant human MAO-B (Homo sapiens)	0.0
COc1cc(-c2cc(=O)c3c(O)cc(O[C@@H]4O[C@H](CO)[C@@H](O)[C@H](O)[C@H]4O)cc3o2)cc(OC)c1O [Tricin-7-glucoside]	recombinant human MAO-B (Homo sapiens)	0.0
